Assay overview: budding yeast growth changes without added modifier – OD600, strain BY4716, 24 h, basal condition, primary screen (AID 1173)
Condition label: S. cerevisiae BY4716 growth, OD600, 24 h; higher = more signal, called active from +8 up or from −8 down
The source made the active and inactive calls.
# Lookup of reported z-score keyed by entry

Molecule | z-score
CC(C)N1CC=CC23O[C@@H]4C=CCOC(=O)[C@@H]4[C@H]2C(=O)N(CCCCCO)[C@@H]3C1=O (some centres undefined) | -0.746 (inactive)
Cc1ccc(S[C@]2(C(=O)O)CC(=O)N(C(C)C)[C@@H]2c2ccc(CO)cc2)cc1 | -1.45 (inactive)
O=C1C2C=CC(C(O)COCc3ccccc3)N(Nc3ccc([N+](=O)[O-])cc3)C2C(=O)N1c1ccccc1 (centres undefined) | 0.858 (inactive)
[N-]=[N+]=Nc1ccccc1[C@H]1OC(c2ccc(OCCCO)cc2)=N[C@@]1(Cc1ccccc1)C(=O)N1CCOCC1 | -1.33 (inactive)

====

System tested: Carbonic anhydrase 2 (Homo sapiens) (UniProt P00918)
Assay overview: compounds binding carbonic anhydrase 2 – biochemical, small-molecule microarray, Alexa647-labelled CAII, profiling panel (AID 1122)
Condition label: CAII-A647 binding fluorescence, higher = more signal
Reported values of composite z-score for individual entries

Molecule | System tested | composite z-score
CCCCC(=C=CC[C@H](O)c1cccc(OCCO)c1)C[C@H](O)c1ccccn1 | Carbonic anhydrase 2 (Homo sapiens) (UniProt P00918) | 0.693
O=C1OCCC=C[C@H]2OC34C=CCN(CCN5CCOCC5)C(=O)[C@H]3N(CCCCCO)C(=O)[C@@H]4C12 (stereo not given in full) | Carbonic anhydrase 2 (Homo sapiens) (UniProt P00918) | 0.848
COCCOC(=O)N1C(=O)[C@@]2(c3cc(C#CC4=CCCCC4)ccc31)[C@H](c1ccc(OCCO)cc1)N1[C@H](c3ccccc3)[C@H](c3ccccc3)OC(=O)[C@H]1[C@@H]2C(=O)N1CCc2cc(OC)c(OC)cc2C1 | Carbonic anhydrase 2 (Homo sapiens) (UniProt P00918) | 0.342
CCOC(=O)C[C@H]1[C@H](OC(=O)c2ccc(C(=O)c3ccccc3)cc2)[C@@H](NC(=O)c2ccccc2)c2cc(OCCCO)ccc2N1C(=O)c1ccccc1 | Carbonic anhydrase 2 (Homo sapiens) (UniProt P00918) | 0.171
C#CCN1[C@@H](Cc2ccc(O)cc2)C(=O)O[C@H](Cc2ccccc2)[C@@H]1/C=C/C1CC1 | Carbonic anhydrase 2 (Homo sapiens) (UniProt P00918) | 0.117
COc1cc2c(cc1OC)CN(C(=O)[C@H]1[C@@H]3C(=O)O[C@@H](c4ccccc4)[C@@H](c4ccccc4)N3[C@@H](c3ccccc3OCCO)[C@]13C(=O)Nc1ccc(C#CCCO)cc13)CC2 | Carbonic anhydrase 2 (Homo sapiens) (UniProt P00918) | 0.383
COc1ccccc1CN1C(=O)c2ccccc2[C@@]2(Cc3ccccc3N(CCCN(C)C)C2=O)[C@@H]1c1ccc(CO)cc1 | Carbonic anhydrase 2 (Homo sapiens) (UniProt P00918) | -0.271
CN(C)CCCCNC(=O)[C@@H]1C[C@@H]2C(=O)N[C@@H](CCCCN)C(=O)N2[C@@H]1c1ccc(O)cc1 | Carbonic anhydrase 2 (Homo sapiens) (UniProt P00918) | -0.0397
C=CC[C@]1(C(N)=O)N=C(c2ccc(OCCCO)cc2)O[C@H]1c1ccccc1 | Carbonic anhydrase 2 (Homo sapiens) (UniProt P00918) | 0.779
CC(C)N1CC=CC23O[C@@H]4C=CCOC(=O)[C@@H]4[C@H]2C(=O)N(CCCCCO)[C@@H]3C1=O (stereo not given in full) | Carbonic anhydrase 2 (Homo sapiens) (UniProt P00918) | 0.733
C=CCN(Cc1ccccc1)C(=O)C(c1cccs1)N(C(=O)/C=C\C(=O)O)c1ccc(CCOCCO)cc1 (stereo not given) | Carbonic anhydrase 2 (Homo sapiens) (UniProt P00918) | 0.864
COc1ccc([C@H]2OC[C@@H]3CCC(=O)N32)cc1 | Carbonic anhydrase 2 (Homo sapiens) (UniProt P00918) | 0.286
COC(=O)[C@@]1(Cc2ccc(F)cc2)[C@H]2c3cc(C(=O)N(C)C)n(Cc4ccc(C)o4)c3C[C@H]2CN1C(=O)c1ccccc1 | Carbonic anhydrase 2 (Homo sapiens) (UniProt P00918) | 0.458
CCOC(=O)C[C@H]1[C@H](OC(=O)c2ccc(C(=O)c3ccccc3)cc2)[C@@H](NC(=O)Cc2ccc(OC)cc2)c2cc(OCCCO)ccc2N1C(=O)c1ccc2ccccc2n1 | Carbonic anhydrase 2 (Homo sapiens) (UniProt P00918) | 0.151
NC(=O)[C@@]1(Cc2ccccc2)N=C(c2ccc(OCCCO)cc2)O[C@H]1c1ccccc1 | Carbonic anhydrase 2 (Homo sapiens) (UniProt P00918) | 0.721

====

Assay overview: probe aEGFR binding to arrayed compounds – biochemical, biotinylated probe, 635/667 nm fluorescence, primary screen (AID 1097);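 also: probe is a biotinylated anti-EGFR antibody binding compounds printed on slides; score combines fluorescence near 667 nm and signal to noise of each spot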
Condition label: small-molecule microarray, higher = more signal
Overview of recorded composite z-score for various molecules
Metric name: composite z-score

Molecule | Result value
COCCOC(=O)N1C(=O)[C@@]2(c3cc(C#CC4=CCCCC4)ccc31)[C@H](C(N)=O)[C@H]1C(=O)O[C@H](c3ccccc3)[C@H](c3ccccc3)N1[C@@H]2c1ccc(O)cc1 | 0.0038
COc1cc2c(cc1O)C=[N+](Cc1cc3c(cc1Br)OCO3)CC2 | -0.188
C=C(/C(=C/C[C@H](OC(=O)c1ccncc1)c1ccc(OCCO)cc1)c1cc(C(=O)OC)ccc1OC)C(C)C | 0.122
O=C1OCCC/C=C\[C@H]2OC34C=CCN(c5ccc6ccccc6c5)C(=O)[C@H]3N(CCCCCO)C(=O)[C@@H]4C12 (some centres undefined) | -0.13

====

Catalogue of compounds with associated composite z-score
Assay overview: probe aNOTCH3 binding on compound microarray – biochemical, small-molecule microarray, 635/667 nm fluorescence, primary screen (AID 1120);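 also: probe is a biotin-tagged antibody raised against NOTCH3 rather than NOTCH3 protein; score merges spot fluorescence near 667 nm with spot signal to noise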
Condition label: higher = more signal
Metric name: composite z-score

Compound | Metric name | Result value
O=C(O)[C@@]1(CCS(=O)(=O)c2ccccc2)N=C(c2ccc(OCCCO)cc2)O[C@H]1c1ccccc1 | composite z-score | 0.156
O=C(O)C1N=C(c2ccc(OCCCO)cc2)N(c2ccccc2)O1 (stereo unspecified) | composite z-score | 0.0967
CN(C)CCCCCCNC(=O)[C@@H]1C[C@@H]2C(=O)N[C@@H](CCCC[N+](C)(C)C)C(=O)N2[C@@H]1c1ccc(O)cc1 | composite z-score | 0.164
COC(=O)[C@@]1(Cc2ccccc2)[C@H]2c3cc(C(=O)N4CCCC4)n(Cc4ccc(O)c(OC)c4)c3C[C@H]2CN1C(=O)c1ccccc1 | composite z-score | 0.63
O=C1NC(=O)C2C1C=CC(C(O)c1ccc(-c3ccccc3)s1)N2Nc1ccc(Cl)cc1Cl (stereo unspecified) | composite z-score | 0.0979
COc1ccc([Si](C)(C)[C@@H]2[C@@H](CCO)O[C@]3(C(=O)N(Cc4cccc(N5CCOC5=O)c4)c4ccccc43)[C@H]2C)cc1 | composite z-score | 0.326
COC(=O)[C@@]1(Cc2ccc(OC)cc2)[C@H]2c3cc(C(=O)N(C)C)n(Cc4ccc(C(F)(F)F)nc4)c3C[C@H]2CN1C(=O)c1ccccc1 | composite z-score | 0.17
CCOC(=O)C1=CC[C@H]2C(=O)N(c3ccccc3)C(=O)[C@@H]12 | composite z-score | 0.0893
C=CCNC(=O)[C@@H]1[C@H]2C(=O)O[C@H](c3ccccc3)[C@H](c3ccccc3)N2[C@H](c2ccc(OCCO)cc2)[C@@]12C(=O)N(C(=O)OCCOC)c1ccc(C#CCNC(N)=O)cc12 | composite z-score | 0.163
NCCCCCCNC(=O)[C@H]1C[C@H]2C(=O)N[C@@H](Cc3ccccc3)C(=O)N2[C@H]1c1cccc(OCCO)c1 | composite z-score | 0.0657
CC(C)[Si](C#CCCCC#N)(O[C@H](c1ccccc1)c1cn(Cc2cccc(Cl)c2)nn1)C(C)C | composite z-score | 0.0871
COCC(=C=CC[C@H](O)c1cccc(OCCO)c1)CCO | composite z-score | -0.0311
COc1ccc([C@H]2C[C@H]3C(I)=C[C@@H]2C(=O)[C@]32CO2)cc1 | composite z-score | 0.0242
CCOC(=O)C[C@H]1[C@H](OC(=O)c2ccc(C(=O)c3ccccc3)cc2)[C@@H](NC(=O)Cc2ccc(OC)cc2)c2cc(OCCCO)ccc2N1C(=O)c1ccc2ccccc2n1 | composite z-score | -0.0445
O=c1cccc(-c2ccccc2Cl)o1 | composite z-score | -0.177
CC1CC/C=C\[C@H]2OC34C=CCN(Cn5nnc6ccccc65)C(=O)[C@H]3N(CCCCCO)C(=O)[C@@H]4C2C(=O)O1 (stereo partly specified) | composite z-score | -0.236

====

Below, each of the molecules is paired with its reported composite z-score value.
Assay overview: probe aCHRDL2 binding to arrayed compounds – biochemical, biotinylated probe, 635/667 nm fluorescence, primary screen (AID 1100)
Condition label: small-molecule microarray, higher = more signal

Molecule | composite z-score
COc1ccc([C@H]2OC[C@@H]3CCC(=O)N32)cc1 | -0.374
COC(=O)c1c(CC[C@@H](CO)NC(=O)N[C@H](Cc2ccccc2)Cn2cc(-c3ccccn3)nn2)oc(C(C)=O)c1C(=O)OC | -0.379
C[C@H]1C2[C@H](Cc3ccccc3)NC(=O)[C@]23C(=O)NCC(=O)N2CCC[C@H]2C(=O)NC/C=C/CCC/C=C/C3[C@@H]2O[C@]12C (stereo partly drawn) | -0.269
CC(=O)NCCCC[C@@H]1NC(=O)[C@H]2C[C@@H](C(=O)O)[C@@H](c3ccc(O)cc3)N2C1=O | 0.372
COC(=O)c1c(CC[C@@H](CO)NC(=O)NCCc2c[nH]c3ccccc23)oc(C(=O)Cc2ccccc2)c1C(=O)OC | -0.805
CCCC[C@@H]1C[C@H]1[C@@H](NC(=O)c1cccnc1)c1ccc(Cl)cc1 | 1.38
COc1ccc(C(O)C2C=CC3C(=O)N(C)C(=O)C3N2N(c2ccccc2)c2ccccc2)c2ccccc12 (stereo not drawn) | 1.04
C#CCN1[C@@H](Cc2ccc(O)cc2)C(=O)O[C@H](Cc2ccccc2)[C@@H]1/C=C/C1CC1 | -0.337
